target: UniProt Q9UGN5; assay: PARP enzyme assay (PARP2); type: biochemical
Sequence (Q9UGN5 whole entry, species assumed): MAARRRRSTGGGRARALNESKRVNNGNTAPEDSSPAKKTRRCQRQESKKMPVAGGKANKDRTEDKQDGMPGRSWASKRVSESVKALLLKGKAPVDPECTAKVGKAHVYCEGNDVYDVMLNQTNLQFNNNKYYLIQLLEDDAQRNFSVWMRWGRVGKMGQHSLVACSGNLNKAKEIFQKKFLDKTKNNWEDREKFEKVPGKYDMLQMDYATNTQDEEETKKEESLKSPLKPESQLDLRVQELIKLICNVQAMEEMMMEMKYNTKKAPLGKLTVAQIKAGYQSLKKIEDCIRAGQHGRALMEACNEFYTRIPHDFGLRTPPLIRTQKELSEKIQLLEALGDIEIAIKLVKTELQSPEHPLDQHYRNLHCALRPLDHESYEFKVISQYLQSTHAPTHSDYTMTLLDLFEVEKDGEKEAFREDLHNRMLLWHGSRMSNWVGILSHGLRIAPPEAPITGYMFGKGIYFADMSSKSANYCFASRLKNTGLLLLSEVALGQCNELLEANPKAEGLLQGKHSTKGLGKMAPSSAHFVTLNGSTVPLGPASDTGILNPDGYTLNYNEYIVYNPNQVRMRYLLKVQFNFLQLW
Recorded IC50 values for a group of compounds are listed next.

Record CC1(O)C(=O)N(c2cc(Cc3n[nH]c(=O)c4ccccc34)ccn2)c2ccccc21 (single isomer, unassigned; (-)) [Example 19] / UniProt Q9UGN5, IC50 recorded as < 10 nM

Record CC1(O)C(=O)N(c2cncc(Cc3n[nH]c(=O)c4ccccc34)c2)c2ccc(F)cc21 (centres unmarked) [Example 13] / UniProt Q9UGN5, IC50 recorded as < 10 nM

UniProt Q9UGN5 IC50 of CC1(O)C(=O)N(c2cc(Cc3n[nH]c(=O)c4cc(F)ccc34)ccn2)c2ccc(F)cc21 (centres unmarked) is < 10 nM

Fill in: UniProt Q9UGN5 IC50 for CC1(O)C(=O)N(c2cc(Cc3n[nH]c(=O)c4ccccc34)ccn2)c2ccccc21 (centres unmarked) [Example 18] = < 10 nM

IC50 of CC1(O)C(=O)N(c2cc(Cc3n[nH]c(=O)c4cc(F)ccc34)ccn2)c2ccccc21 (single isomer, unassigned; (-)) [Example 22] , assay on UniProt Q9UGN5, is < 10 nM

UniProt Q9UGN5 data for C[C@]1(O)C(=O)N(c2cncc(Cc3n[nH]c(=O)c4ccccc34)c2)c2ccccc21 ; its IC50: < 10 nM

Item: CC1(O)C(=O)N(c2cc(Cc3n[nH]c(=O)c4cc(F)ccc34)ccn2)c2ccccc21 (centres unmarked) [Example 21] | System: UniProt Q9UGN5 | IC50: > 10 nM

The compound CC1(O)C(=O)N(c2cncc(Cc3n[nH]c(=O)c4cc(F)ccc34)c2)c2ccc(F)cc21 (single isomer, unassigned; (+)) [Example 11] on UniProt Q9UGN5: IC50 was < 10 nM
